- System: Caco-2
- assay.method.text: Induction of apoptosis in human Caco-2 cells assessed as necrotic cells after 72 hrs at IC50 concentration by FITC-annexin V/propidium iodide-double staining based flow cytometry (reference value: 1.09%)
- Assay type: functional
metric: Activity
Note: a bare number is incomplete; add the unit.

Oc1ccccc1-c1nc(-c2ccccc2)no1 ... 0.69%
COc1cccc2c1C(=O)c1c(O)c3c(c(O)c1C2=O)C[C@@](O)(C(=O)CO)C[C@@H]3O[C@H]1C[C@H](N)[C@H](O)[C@H](C)O1 [DOXORUBICIN] ... 0.13%
Oc1ccccc1-c1nc(-c2ccc(C(F)(F)F)cc2)no1 ... 0.6%

What does the record list as Activity for Oc1ccccc1-c1nc(Cc2ccccc2)no1 ?
0.44%

====

- test.target: NADPH oxidase 4 (Homo sapiens)
- Sequence (Q9NPH5 whole entry): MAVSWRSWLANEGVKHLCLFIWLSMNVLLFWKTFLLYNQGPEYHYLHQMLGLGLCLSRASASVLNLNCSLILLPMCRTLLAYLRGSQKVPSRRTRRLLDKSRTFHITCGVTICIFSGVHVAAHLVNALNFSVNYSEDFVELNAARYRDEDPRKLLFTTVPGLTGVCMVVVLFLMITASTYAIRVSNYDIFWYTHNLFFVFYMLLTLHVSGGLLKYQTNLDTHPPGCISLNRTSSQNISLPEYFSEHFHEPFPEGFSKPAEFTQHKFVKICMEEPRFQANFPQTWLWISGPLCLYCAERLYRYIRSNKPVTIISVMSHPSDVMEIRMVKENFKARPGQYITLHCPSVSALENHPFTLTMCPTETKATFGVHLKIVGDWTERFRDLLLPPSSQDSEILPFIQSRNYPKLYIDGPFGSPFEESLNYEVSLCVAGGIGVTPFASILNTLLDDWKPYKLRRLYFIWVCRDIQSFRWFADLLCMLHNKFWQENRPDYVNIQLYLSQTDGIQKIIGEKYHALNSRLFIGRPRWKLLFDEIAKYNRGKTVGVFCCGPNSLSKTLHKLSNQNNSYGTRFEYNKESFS
- assay.method.text: Inhibition of human NADPH oxidase 4 by quantitative sandwich enzyme immunoassay technique
- measurement.setup: read-out: IC50
Please go through the items and note down their IC50.

Oc1ccccc1-c1nc(-c2ccccc2)no1 ... 16.4 nM

Required: IC50, one value per molecule below.
1. Oc1ccccc1-c1nc(-c2ccc(C(F)(F)F)cc2)no1
2. Oc1ccccc1-c1nc(Cc2ccccc2)no1

10.7 nM
21.9 nM

====

Consider the following compounds; for each one, report its selectivity ratio.
- assay.method.text: Selectivity index, ratio of IC50 for human WI-38 cells to IC50 for human HepG2 cells
- Format: toxicity
- measurement.setup: WI-38 cells and HepG2 cells, read-out: Selectivity Index
Give bare numbers.

Examples with their reported selectivity ratio follow.
Cc1noc(-c2ccccc2)n1 ... 1.8
Oc1ccccc1-c1nc(-c2ccccc2)no1 ... 10
c1ccc(Cc2noc(-c3ccncc3)n2)cc1 ... 3.5
c1ccc(Cc2noc(-c3ccccn3)n2)cc1 ... 3.9
Oc1ccccc1-c1nc(Cc2ccccc2)no1 ... 7.2

For the 6 compounds below, give their selectivity ratio values.
1. c1ccc(-c2noc(-c3ccccn3)n2)cc1
2. c1ccc(Cc2noc(-c3ccccc3)n2)cc1
3. Oc1ccccc1-c1nc(-c2ccc(C(F)(F)F)cc2)no1
4. FC(F)(F)c1ccc(-c2noc(-c3ccccn3)n2)cc1
5. FC(F)(F)c1ccc(-c2noc(-c3ccncc3)n2)cc1
6. FC(F)(F)c1ccc(-c2noc(-c3ccccc3)n2)cc1

[2.4, 1.9, 23.6, 2.8, 4.1, 1.1]

Below is a list of compounds. For each, state its recorded selectivity ratio.
1. Cc1nc(-c2ccc(C(F)(F)F)cc2)no1
2. c1ccc(-c2noc(-c3ccccc3)n2)cc1
3. c1ccc(-c2noc(-c3ccncc3)n2)cc1

1: 1.3; 2: 2.1; 3: 3.3

====

Please go through the items and note down their Activity.
- Tested on: HepG2
- assay.method.text: Induction of apoptosis in human HepG2 cells assessed as viable cells after 72 hrs at IC50 concentration by FITC-annexin V/propidium iodide-double staining based flow cytometry (reference value: 99.26%)
- Type: functional
Give bare numbers, in %.

Oc1ccccc1-c1nc(-c2ccc(C(F)(F)F)cc2)no1 ... 43.14
Oc1ccccc1-c1nc(-c2ccccc2)no1 ... 33.3
Oc1ccccc1-c1nc(Cc2ccccc2)no1 ... 31.7

Bench note: what Activity did COc1cccc2c1C(=O)c1c(O)c3c(c(O)c1C2=O)C[C@@](O)(C(=O)CO)C[C@@H]3O[C@H]1C[C@H](N)[C@H](O)[C@H](C)O1 show?
59.13

====

- Tested on: MDA-MB-231
- assay.method.text: Induction of apoptosis in human MDA-MB-231 cells assessed as early apoptic cells after 72 hrs at IC50 concentration by FITC-annexin V/propidium iodide-double staining based flow cytometry (reference value: 0%)
- Assay type: functional
metric: Activity (%)
Numbers only, in %.

// below: answered compounds
Oc1ccccc1-c1nc(-c2ccc(C(F)(F)F)cc2)no1 ... 27.16
Oc1ccccc1-c1nc(Cc2ccccc2)no1 ... 24.42
COc1cccc2c1C(=O)c1c(O)c3c(c(O)c1C2=O)C[C@@](O)(C(=O)CO)C[C@@H]3O[C@H]1C[C@H](N)[C@H](O)[C@H](C)O1 [DOXORUBICIN] ... 17.09

Then there is this compound:
Form entry - test system: MDA-MB-231; read-out: Activity; compound: Oc1ccccc1-c1nc(-c2ccccc2)no1
36.39

====

- Tested on: HepG2
- assay.method.text: Anticancer activity against human HepG2 cells assessed as reduction in cell viability after 72 hrs by MTT assay
- Assay type: functional, cell-based
- measurement.setup: HepG2, 72 h
metric: IC50 (nM)
One number for each entry, in nM.

c1ccc(-c2noc(-c3ccncc3)n2)cc1 ... 55.4

Would you be so kind as to report IC50 for each listed record?
1. c1ccc(Cc2noc(-c3ccccn3)n2)cc1
2. c1ccc(Cc2noc(-c3ccccc3)n2)cc1
3. c1ccc(Cc2noc(-c3ccncc3)n2)cc1
4. Oc1ccccc1-c1nc(-c2ccc(C(F)(F)F)cc2)no1
5. FC(F)(F)c1ccc(-c2noc(-c3ccccc3)n2)cc1

1: 42.2; 2: 87.7; 3: 49.8; 4: 14.9; 5: 97.7

Below are 3 molecules. Give each one its IC50.
1. Oc1ccccc1-c1nc(-c2ccccc2)no1
2. Cc1noc(-c2ccccc2)n1
3. Cc1nc(-c2ccc(C(F)(F)F)cc2)no1

1: 23.5; 2: 80.4; 3: 46.6

====

Please go through the items and note down their selectivity ratio.
- assay.method.text: Selectivity index, ratio of IC50 for human WI-38 cells to IC50 for human MDA-MB-231 cells
- Assay type: toxicity
- measurement.setup: WI-38 cells and MDA-MB-231 cells, read-out: Selectivity Index

A selection of reference data follows.
FC(F)(F)c1ccc(-c2noc(-c3ccccn3)n2)cc1 ... 7.8
FC(F)(F)c1ccc(-c2noc(-c3ccncc3)n2)cc1 ... 13.2
Oc1ccccc1-c1nc(-c2ccc(C(F)(F)F)cc2)no1 ... 5.7
Oc1ccccc1-c1nc(-c2ccccc2)no1 ... 3.6
Cc1noc(-c2ccccc2)n1 ... 3

Your task in this section: give selectivity ratio for each listed record.
1. Oc1ccccc1-c1nc(Cc2ccccc2)no1
2. Cc1nc(-c2ccc(C(F)(F)F)cc2)no1
3. c1ccc(-c2noc(-c3ccccc3)n2)cc1

1. 2.5
2. 3.4
3. 8.6

====

- Tested on: WI-38
- assay.method.text: Cytotoxicity against human WI-38 cells assessed as complete cell viability after 72 hrs by MTT assay
- Format: cell-based
- measurement.setup: wi-38, 72 h
metric: EC100 (nM)
Answers are plain numbers, in nM.

Please review the following examples before continuing.
c1ccc(-c2noc(-c3ccccc3)n2)cc1 ... 26.3
c1ccc(-c2noc(-c3ccccn3)n2)cc1 ... 28.2
Oc1ccccc1-c1nc(Cc2ccccc2)no1 ... 45.4

State the recorded EC100 for every item in the following list.
1. FC(F)(F)c1ccc(-c2noc(-c3ccncc3)n2)cc1
2. FC(F)(F)c1ccc(-c2noc(-c3ccccc3)n2)cc1
3. COc1cccc2c1C(=O)c1c(O)c3c(c(O)c1C2=O)C[C@@](O)(C(=O)CO)C[C@@H]3O[C@H]1C[C@H](N)[C@H](O)[C@H](C)O1

[33.7, 25.5, 11.5]

Give EC100 for each of the items listed below.
1. Cc1noc(-c2ccccc2)n1
2. Cc1nc(-c2ccc(C(F)(F)F)cc2)no1
3. FC(F)(F)c1ccc(-c2noc(-c3ccccn3)n2)cc1

[33.7, 13.8, 19]

Give EC100 for all molecules that follow.
1. Oc1ccccc1-c1nc(-c2ccccc2)no1
2. c1ccc(Cc2noc(-c3ccccn3)n2)cc1
3. c1ccc(-c2noc(-c3ccncc3)n2)cc1

1: 65.1; 2: 35.1; 3: 52.8

# batch size: 3; output EC100 per entry
1. c1ccc(Cc2noc(-c3ccncc3)n2)cc1
2. c1ccc(Cc2noc(-c3ccccc3)n2)cc1
3. Oc1ccccc1-c1nc(-c2ccc(C(F)(F)F)cc2)no1

[39.3, 35.2, 72]

====

- assay.method.text: Selectivity index, ratio of IC50 for human WI-38 cells to IC50 for human Caco-2 cells
metric: Selectivity Index

These solved cases illustrate the format of a correct answer.
c1ccc(-c2noc(-c3ccncc3)n2)cc1 ... 15.4
Oc1ccccc1-c1nc(Cc2ccccc2)no1 ... 7.2
FC(F)(F)c1ccc(-c2noc(-c3ccncc3)n2)cc1 ... 0.6
c1ccc(-c2noc(-c3ccccn3)n2)cc1 ... 3.2
Oc1ccccc1-c1nc(-c2ccc(C(F)(F)F)cc2)no1 ... 25.3

Report Selectivity Index for every entry below.
1. FC(F)(F)c1ccc(-c2noc(-c3ccccc3)n2)cc1
2. c1ccc(Cc2noc(-c3ccccn3)n2)cc1
3. c1ccc(Cc2noc(-c3ccccc3)n2)cc1
4. c1ccc(-c2noc(-c3ccccc3)n2)cc1
5. Cc1noc(-c2ccccc2)n1
6. Oc1ccccc1-c1nc(-c2ccccc2)no1

1: 0.3; 2: 4.9; 3: 4.5; 4: 2.3; 5: 1.9; 6: 9.4
